biological target: canine IL-4RA (construct not given) (canine); test: SPR, IL-4RA immobilised, periplasmic Fab
Parameter Measured: koff
Answer format: value, then unit.

Previously resolved entries follow.
Summary for this binder, FJ2246MP10F04 (Fab, V domains shown) VH: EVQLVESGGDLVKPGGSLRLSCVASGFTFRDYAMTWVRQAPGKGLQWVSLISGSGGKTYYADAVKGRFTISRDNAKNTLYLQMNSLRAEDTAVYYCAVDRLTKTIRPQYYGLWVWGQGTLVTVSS VL: DIVMTQTPLSLSVSPGETASISCRSSKSLLYSIGYNYLDWYLQKPGQSPQGLIYLGSKRASGVPDRFSGSGSGTDFTLRISRVEADDTGVYYCMQGLHSPLTFGQGTKLEIK : koff is 9.16e-05 s⁻¹

Summary for this binder, FJ2246MP10B07 (Fab, V domains shown) VH: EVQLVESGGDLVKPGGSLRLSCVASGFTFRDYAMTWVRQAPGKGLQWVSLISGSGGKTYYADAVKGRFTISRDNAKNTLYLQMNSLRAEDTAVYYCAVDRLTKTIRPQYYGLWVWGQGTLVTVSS VL: DIVMTQTPLSLSVSPGETASISCRSSQSLLYSIGYNYLDWYLQKPGQSPQGLIYLGSKRASGVPDRFSGSGSGTDFTLRISRVEAEDTGVYYCMQGLHSPLTFGQGTKLEIK : koff is 0.000125 s⁻¹

Now look at this entry.
Summary for this binder, FJ2246MP10A10 (Fab, V domains shown) VH: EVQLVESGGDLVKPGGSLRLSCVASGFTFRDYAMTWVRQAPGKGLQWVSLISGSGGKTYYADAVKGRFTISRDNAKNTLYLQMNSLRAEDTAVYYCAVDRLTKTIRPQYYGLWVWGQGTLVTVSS VL: DIVMTQTPLSLSVSPGETASISCRSSQSLLYSIGYNYLDWYLQKPGQSPQGLIYLGSKRASGVPDRFSGSGSGTDFTLRISRVEAEDTGVYYCMQGLHSPLTFGQGTKLEIK : koff is 0.000126 s⁻¹
